All values here come from patent US5830903A.

Assay: Acute toxicity in mice
Conditions: mouse, in vivo, po, per os, 14 days
MEASURED_QUANTITY: LD50 at 336 h (mg/kg)
Give bare numbers, in mg/kg.

Fill in reported LD50 at 336 h for this entry: `c1ccc2c(-n3cncn3)ccnc2c1`
840
